Where do these numbers come from? They come from BindingDB's records for doi:10.1021/jm00083a023.

assay: Compound was evaluated for the inhibition of serum-opsonized zymosan stimulated myeloperoxidase release from human neutrophil
Parameter measured: IC50 (µM)
Answer with a number only, understood to be in µM.

I have this compound here, `COc1ccc2sc(C(=O)Nc3nnn[nH]3)c(OC(C)C)c2c1` , and I need its recorded IC50.
7.5
